Data credit: ChEMBL document CHEMBL5247631

test system: DLD-1; test: Antiproliferative activity against human DLD-1 cells assessed as reduction in cell viability incubated for 48 hrs by MTT assay; assay type: functional, cell-based; conditions: DLD-1, 48 h
Observation type: IC50 (µM)
Respond with the bare value in µM.

*Q* Quick one: IC50 for COc1ccc2oc(=N)c(C(N)=S)cc2c1 ?
*A* 50.2

* * *

test system: Hep 3B2; assay: Antitumor activity against human Hep3B cells assessed as inhibition of cell viability; assay type: functional, cell-based
Observation type: IC50

*Q* Request the reported IC50 associated with CNC(=O)c1cc(Oc2ccc(NC(=O)Nc3ccc(Cl)c(C(F)(F)F)c3)cc2)ccn1 [SORAFENIB]
*A* < 10 µM
